System: hMSCs
method: STRO-1 stemness marker expression in hMSCs (immunostaining, ImageJ quantification)
Type: cell-based, Human
run-conditions: SEQ ID NO: 1143 to 1180 tested in solution
Each entry below lists one item and its recorded STRO-1 expression value.
# number only, unit % dropped from output

| seq-text | display-unit | STRO-1 expression |
| --- | --- | --- |
| AASKASSVPEKMRPVQTRKI (GFR-binding peptide) [SEQ ID NO: 1179] | % | 32 |
| NDEGLESVPEDLSSLSVLFF (GFR-binding peptide) [SEQ ID NO: 1143] | % | 23 |
| GIPEPSSAPVDMRPVQIRKI (GFR-binding peptide) [SEQ ID NO: 1180] | % | 30 |
| RVPSTSSTQVDLNAISVLYF (GFR-binding peptide) [SEQ ID NO: 1159] | % | 23 |
| RVPSTSSVPEKMEPLTMLYY (GFR-binding peptide) [SEQ ID NO: 1173] | % | 18 |

# STRO-1 expression lookup, item GIPEPSSAPTELSATSILYY (GFR-binding peptide) [SEQ ID NO: 1146]
20

Given the entry KIPKASSVSQKMEPLTMLYY (GFR-binding peptide) [SEQ ID NO: 1150] , report its measured STRO-1 expression.
20

Data request, read-out STRO-1 expression, for GIPEPSSAPVGQEPLPMVYY (GFR-binding peptide) [SEQ ID NO: 1172]
28

Fill in the blank: the reported STRO-1 expression of KIPKASSVPTGGSNITVQIM (GFR-binding peptide) [SEQ ID NO: 1151] is ____.
32

###

Reported CD34+ Expression values follow for various sequences
System: Human Hematopoietic Stem Cells
method: CD-34+ stemness marker expression (immunostaining, ImageJ quantification)
Type: cell-based
run-conditions: peptides grafted on a PET surface; 48 hours
Just the number please, in %, no unit attached.

Some entries whose results are on file:
| seq-text | target-of-assay | CD34+ Expression, % |
| --- | --- | --- |
| KIPKASSTPTRLRSVKMAKV (GFR-binding peptide) [SEQ ID NO: 1083] | Human Hematopoietic Stem Cells | 17 |
| RVPSTSSVPQQLNAISTLYF (GFR-binding peptide) [SEQ ID NO: 1074] | Human Hematopoietic Stem Cells | 32 |
| RVPSTSSVPTELSAISVLYL (GFR-binding peptide) [SEQ ID NO: 1071] | Human Hematopoietic Stem Cells | 29 |
| AASKASSVPAKMRPVQTRKI (GFR-binding peptide) [SEQ ID NO: 1085] | Human Hematopoietic Stem Cells | 19 |
| AASKASSAPTKMSPINILYF (GFR-binding peptide) [SEQ ID NO: 1079] | Human Hematopoietic Stem Cells | 30 |
| AASKASSVPTKMEPISTLYL (GFR-binding peptide) [SEQ ID NO: 1078] | Human Hematopoietic Stem Cells | 30 |
| AASKASSVPQQLSSLSTLFF (GFR-binding peptide) [SEQ ID NO: 1073] | Human Hematopoietic Stem Cells | 29 |
| KIPKASSVPTKMRPVQMRKI (GFR-binding peptide) [SEQ ID NO: 1084] | Human Hematopoietic Stem Cells | 18 |

Would you kindly share the measured CD34+ Expression for RVPSTSSTQVRLSPISMLFI (GFR-binding peptide) [SEQ ID NO: 1077] ?
24

I have this sequence here, KIPKASSVPEELEPLPTVYY (GFR-binding peptide) [SEQ ID NO: 1081] , and I need its recorded CD34+ Expression.
33

What does the data say about its CD34+ Expression? Entry: KIPKASSTPTGQSNITMQIM (GFR-binding peptide) [SEQ ID NO: 1082]
18

Looking for the measured CD34+ Expression of RVPSTSSAPVEESPISTLYI (GFR-binding peptide) [SEQ ID NO: 1076] , can you help?
27

Query: CD34+ Expression; subject: RVPSTSSVPTDLSSLSILFF (GFR-binding peptide) [SEQ ID NO: 1072]
26

May I ask what CD34+ Expression has been recorded for RVPSTSSTPTKMKPLSILYV (GFR-binding peptide) [SEQ ID NO: 1080] ?
31

Give the measured CD34+ Expression of AASKASSSRVEESATSTLYY (GFR-binding peptide) [SEQ ID NO: 1075] .
28

###

System: hMSCs
method: STRO-1 stemness marker expression in hMSCs (immunostaining, ImageJ quantification)
Format: cell-based, Human
run-conditions: grafted on a PET surface
Listed next: entries and their corresponding STRO-1 expression.
Supply the numeric figure in %, leaving out any unit text.

Would you please look over these solved cases?
| seq-text | display-unit | STRO-1 expression |
| --- | --- | --- |
| CKIPKPSSAPTELSAISMLYL (Previously reported sequence) [SEQ ID NO: 1135, reference compound] | % | 78 |
| KIPKPSSAPTELSAISMLYC (Previously reported sequence) [SEQ ID NO: 1133, reference compound] | % | 80 |
| TCCVPELSAISMLYLDEN (Previously reported sequence) [SEQ ID NO: 1131, reference compound] | % | 84 |
| APTQLSAISVL (Previously reported sequence) [SEQ ID NO: 1127, reference compound] | % | 93 |
| ENVNLKKYRNMIVKSCGCH (Previously reported sequence) [SEQ ID NO: 1090, reference compound] | % | 97 |

Query (sequence): MSRVLFEPLTFLQTGSGLPDEKTLG (Previously reported sequence) [SEQ ID NO: 1096, reference compound] ; field requested: STRO-1 expression
94

Quick one: STRO-1 expression for VPTKLSPISILYKDDMGVPTYKFKYEGMSVAECGCR (Previously reported sequence) [SEQ ID NO: 1109, reference compound] ?
82

For TPTYSRPVQKAELTR (Previously reported sequence) [SEQ ID NO: 1091, reference compound] , what is its reported STRO-1 expression?
97

Data request, read-out STRO-1 expression, for DPLPIIYYVGRNVRVEQLSNMVVRACKCS (Previously reported sequence) [SEQ ID NO: 1089, reference compound]
97

What value of STRO-1 expression has been recorded for this entry: LMDLARMPSCLRGERAVPQDTTGYFTWSSNITPLNFIF (Previously reported sequence) [SEQ ID NO: 1093, reference compound]
92

###

Tested on: hMSCs
method: STRO-1 stemness marker expression in hMSCs (immunostaining, ImageJ quantification)
Type: cell-based, Human
run-conditions: grafted on a PET surface
No end group written: not given here.
recorded-metric: STRO-1 expression (%)
// units = %; emit number, no label

Completed entries (count: 5):
| seq-text | STRO-1 expression / % |
| --- | --- |
| CCAPTELSAISVLYFDDSSNVILKKYRNMVVRACGCR (Previously reported sequence) [SEQ ID NO: 1139, reference compound] | 81 |
| CVTKPLSSLLFPNWNTTTTPTPP (Previously reported sequence) [SEQ ID NO: 1102, reference compound] | 92 |
| KGSEYEKLVVSGITQVYQSSLSWHGCKSCCEVQVXNLXILIRLYDVHYYN (not fully specified; X: residue not identified in the source; ends and bridges not checked) [SEQ ID NO: 1122, reference compound] | 88 |
| KIPKPSSAPTELSAISMC (Previously reported sequence) [SEQ ID NO: 1129, reference compound] | 78 |
| TLXPIVSSXNPSPISFRXIKILLHDLEVVPFPKSRVR (not fully specified; X: residue not identified in the source; ends and bridges not checked) [SEQ ID NO: 1107, reference compound] | 84 |

Here is another sequence to look at.
I have this sequence here, MRTESTPTTASAISYECLWSPPSNEAAKLHFDS (Previously reported sequence) [SEQ ID NO: 1137, reference compound] , and I need its recorded STRO-1 expression.
94

###

Test system: hMSCs
method: STRO-1 stemness marker expression in hMSCs (immunostaining, ImageJ quantification)
Type: cell-based, Human
run-conditions: SEQ ID NO: 1143 to 1180 tested in solution
STRO-1 expression values for the sequences below.
The figure you give is taken to be in %; do not add the unit.

| seq-text | target-of-assay | STRO-1 expression [%] |
| --- | --- | --- |
| STPPTSSTPTKMSNITTQIM (GFR-binding peptide) [SEQ ID NO: 1175] | hMSCs | 27 |
| KIPKASSSRVRLSSLSTLFF (GFR-binding peptide) [SEQ ID NO: 1157] | hMSCs | 20 |
| RVPSTSSVPAEESNITVQIM (GFR-binding peptide) [SEQ ID NO: 1176] | hMSCs | 26 |

Fill in the blank: the reported STRO-1 expression of AASKASSVPQEEEPLPMVYY (GFR-binding peptide) [SEQ ID NO: 1149] is ____.
23

Dear colleague, I am looking for the recorded STRO-1 expression of the following sequence: KIPKASSTQVRLRPVQIRKI (GFR-binding peptide) [SEQ ID NO: 1153]
30

Values were extracted from patent US11578110B2.
